Each entry below carries its recorded IC50.
# target.entity: HMG-CoA reductase (Rattus norvegicus, UniProt P51639)
# Construct: solubilized enzyme preparations from liver microsomes of rats; from tissue; host or cells: liver microsomes of cholestyramine-induced rats
# Sequence (P51639 1-887): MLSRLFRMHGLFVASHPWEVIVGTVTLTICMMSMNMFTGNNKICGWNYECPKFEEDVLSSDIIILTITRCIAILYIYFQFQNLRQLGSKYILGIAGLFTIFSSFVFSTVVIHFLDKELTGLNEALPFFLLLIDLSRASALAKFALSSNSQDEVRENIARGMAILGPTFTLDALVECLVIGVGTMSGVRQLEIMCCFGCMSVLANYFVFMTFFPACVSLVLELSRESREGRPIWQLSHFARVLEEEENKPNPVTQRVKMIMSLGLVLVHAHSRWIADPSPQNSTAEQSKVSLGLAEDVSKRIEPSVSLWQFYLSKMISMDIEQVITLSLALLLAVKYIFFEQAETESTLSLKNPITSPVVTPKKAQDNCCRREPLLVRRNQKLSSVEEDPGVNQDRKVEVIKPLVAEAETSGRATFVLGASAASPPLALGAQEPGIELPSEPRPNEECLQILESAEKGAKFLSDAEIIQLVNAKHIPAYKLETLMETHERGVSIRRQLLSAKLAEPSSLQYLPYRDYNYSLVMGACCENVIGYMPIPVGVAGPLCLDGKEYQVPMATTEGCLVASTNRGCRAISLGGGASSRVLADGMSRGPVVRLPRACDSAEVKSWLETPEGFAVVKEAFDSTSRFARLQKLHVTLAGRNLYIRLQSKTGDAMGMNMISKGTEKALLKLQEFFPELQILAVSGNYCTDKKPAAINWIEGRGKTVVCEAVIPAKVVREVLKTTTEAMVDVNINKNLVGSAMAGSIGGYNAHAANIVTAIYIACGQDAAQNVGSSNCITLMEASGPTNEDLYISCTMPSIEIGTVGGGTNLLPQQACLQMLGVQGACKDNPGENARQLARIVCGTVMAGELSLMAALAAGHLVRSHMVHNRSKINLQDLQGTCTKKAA
# assay.comment: HMG-CoA reductase activity in solubilized enzyme preparations from liver microsomes of rats
# Assay type: biochemical
# details: 14C-HMG-CoA substrate, mean from 3 parallel samples, read-out: IC50 [M], inhibition of HMG-CoA reductase
value.kind: IC50

{"molecule": "Cc1cccc(CCC2CCCCC2)c1/C=C/[C@@H]1C[C@@H](O)CC(=O)O1 [16 u]", "target.entity": "HMG-CoA reductase (Rattus norvegicus, UniProt P51639)", "value.observed": "6.5e-07 M"}
{"molecule": "O=C1C[C@H](O)C[C@@H](/C=C/c2ccccc2CCc2ccc(F)cc2)O1 [16 g]", "target.entity": "HMG-CoA reductase (Rattus norvegicus, UniProt P51639)", "value.observed": "9e-07 M"}
{"molecule": "Cc1cccc(Cc2ccc(Cl)cc2)c1/C=C/[C@@H]1C[C@@H](O)CC(=O)O1 [16 y]", "target.entity": "HMG-CoA reductase (Rattus norvegicus, UniProt P51639)", "value.observed": "2.8e-07 M"}
{"molecule": "O=C1C[C@H](O)C[C@@H](/C=C/c2ccccc2Cc2ccc(Cl)cc2)O1 [16 l]", "target.entity": "HMG-CoA reductase (Rattus norvegicus, UniProt P51639)", "value.observed": "8e-07 M"}
{"molecule": "O=C1C[C@H](O)C[C@@H](/C=C/c2ccccc2CC2CCCCC2)O1 [16 j]", "target.entity": "HMG-CoA reductase (Rattus norvegicus, UniProt P51639)", "value.observed": "9e-08 M"}
{"molecule": "O=C1C[C@H](O)C[C@@H](/C=C/c2c(Cl)cccc2Cc2ccc(Cl)cc2)O1 [16 ab]", "target.entity": "HMG-CoA reductase (Rattus norvegicus, UniProt P51639)", "value.observed": "2.3e-07 M"}
{"molecule": "O=C1C[C@H](O)C[C@@H](/C=C/c2c(Cl)cc(Cl)cc2CC2CCCCC2)O1 [16 z]", "target.entity": "HMG-CoA reductase (Rattus norvegicus, UniProt P51639)", "value.observed": "1.9e-08 M"}
{"molecule": "O=C1C[C@H](O)C[C@@H](/C=C/c2c(Cl)cccc2CC2CCCCC2)O1 [16 ac]", "target.entity": "HMG-CoA reductase (Rattus norvegicus, UniProt P51639)", "value.observed": "7.1e-08 M"}
